- Test system: MS2 coat protein
- method_notes: apparent KD of MS2 coat protein; designed switch direction (-1 OFF switch, 1 ON switch): 1; higher = weaker reporter binding
- condition_info: input ligand: FMN 200 uM
If the reported apparent KD of MS2 coat protein equals or exceeds 100 nM, assign 1. If not, assign 0.

Sample answers from the record:
GCUCGCACGAUGACCCACAUGAGGAUCACCCAUGUGCAUGGGCAGGAUAUCUAGAUUAAGGAUGUAGAGAAGGGUUGAGCGAGC [SameState NG3 #26] (Eterna round: R96, puzzle: Same State NG 3): 1
AAGAGGUCCGCAGGAUAUACCCGGGCUCGCCGGGUAGAAGGGUGAACCUCAUAACCCACCACACACAUGAGGAUCACCCAUGUA [Tedile] (Eterna round: R96, puzzle: Same State NG 1): 1
AAGAAACAUGAGGAUCACCCAUGUAGAAAUAUGGGAGGAUAUACGAAGACGAAAGUCAAAGUAGAAGGCCUAAAAG [Mat - Same State 1 - Eli mod - D107] (Eterna round: R96, puzzle: Same State 1): 0

Pending sequence:
Exercise: Is reported apparent KD of MS2 coat protein greater than or equal to 100 nM here: UGGCUCAGAGCAGGAUAUAUGUAAUAACAUGAGGAUCACCCAUGUGUCGAGCUUCGGCUCGACACAUAGAAGGGCUCUGAGCCU [SSNG2/2-B3] (Eterna round: R96, puzzle: Same State NG 2)
Key: 0

====

- Test system: MS2 coat protein
- method_notes: apparent KD of MS2 coat protein; designed switch direction (-1 OFF switch, 1 ON switch): -1; higher = weaker reporter binding
- condition_info: Eterna round: R95; input ligand: microRNA oligo, concentration not stated
Classify on apparent KD of MS2 coat protein using lower segment (below 30 nM), middle segment (30 nM to below 80 nM), upper segment (80 nM or more)

AGAUGGCGAGGAUAUACAUGAGGAUCACCCAUGUGAGAUAAAUAAGUGAGGAAGAAAAGUAGAAGGCGCUGUCA [Mat - Exclusion 3 - Mod of Salish D14] (puzzle: Exclusion 3): middle segment

Pending sequence:
Exercise: Category lookup for the sequence AACGUGGCAAAGGAUAUCCACACGGCAAAGCCGGGAGAAGGUUGCACAUGAGGAUCACCCAUGUGAACCAAACA [Onsozamati] (puzzle: Exclusion 6)
Key: lower segment

====

- System: MS2 coat protein
- method_notes: apparent KD of MS2 coat protein; designed switch direction (-1 OFF switch, 1 ON switch): 1; higher = weaker reporter binding
- condition_info: Eterna round: R95; input ligand: microRNA oligo, concentration not stated
List of apparent KD of MS2 coat protein values.
Write the numeric value and follow it with the unit.

GGUCCAGCCUGAGCUGGACAAAAGCAUGUACAUGAGGAUCACCCAUGUUCAUGUACAAGCUUUUUGCUCGUCUUACU [salish99_208a_r3_085] (puzzle: Sensor for hsa-mir-208a): 0.015 µM

Exercise: For ACAAGCUUUUUGCUCAUCUUAUGUCCGAAACAUGAGGAUCACCCAUGUGUAGAUUAUGUGUUGUUUUUGAUACGAGA [JR_SHM208A_Sub065] (puzzle: Sensor for hsa-mir-208a) , what is its reported apparent KD of MS2 coat protein?
Key: 0.0284 µM

Exercise: For AGUCCAGCCAGAGCUGGACAAAAGCAUGUACAUGAGGAUCACCCAUGUCAUGUACAAGCUUUUUGCUCGUCUUAAAA [Mat - hsa-mir-208a - Mod of JL - D2] (puzzle: Sensor for hsa-mir-208a) , what is its reported apparent KD of MS2 coat protein?
Key: 0.0137 µM
